# assayProtocol: Acid-catalyzed hydrolysis of enol ethers in THF/1 M HCl, percent remaining by GC-FID
# Assay type: physicochemical
# measurementContext: THF/1M HCl (80:20 v/v), room temperature, 72 h
Give percent remaining, 72 h for every item shown.
Answers are plain numbers, in %.

Completed entries (count: 4):
{"compound": "CC/C=C\\CCOC(=O)C(C)OC=C(C)c1ccc(OC)cc1 (racemic)", "unitInfo": "%", "percent remaining, 72 h": 91.2}
{"compound": "CCCCCC(CC)OC=C(C)c1ccccc1 (centres unmarked) [(1-(octan-3-yloxy)prop-1-en-2-yl)benzene, reference compound]", "unitInfo": "%", "percent remaining, 72 h": 89.3}
{"compound": "CC(OC=Cc1ccccc1)C(=O)OCCc1ccccc1 (racemic) [Compound 40, (±)-phenethyl 2-(styryloxy)propanoate]", "unitInfo": "%", "percent remaining, 72 h": 91.8}
{"compound": "CC/C=C\\CCOC(=O)C(C)OC=Cc1ccc(OC)cc1 (racemic)", "unitInfo": "%", "percent remaining, 72 h": 89.8}

Attention now shifts to the item below.
Bench note: what percent remaining, 72 h did CC/C=C\CCOC(=O)C(C)OC=Cc1ccccc1 (racemic) show?
90.7

* * *

# assayProtocol: Acid-catalyzed hydrolysis of enol ethers in THF/1 M HCl, percent remaining by GC-FID
# Format: physicochemical
# measurementContext: THF/1M HCl (80:20 v/v), room temperature, 48 h
reportedMetric: percent remaining, 48 h (%)
Give bare numbers, in %.

Completed entries (count: 2):
{"compound": "CC/C=C\\CCOC(=O)C(C)OC=Cc1ccc(OC)cc1 (racemic)", "percent remaining, 48 h / %": 93.9}
{"compound": "CC(=COCCc1ccccc1)c1ccccc1 [(1-phenethoxyprop-1-en-2-yl)benzene, reference compound]", "percent remaining, 48 h / %": 96.5}

Attention now shifts to the item below.
Bench note: what percent remaining, 48 h did CC/C=C\CCOC=Cc1ccc(OC)cc1 [Compound 51, reference compound] show?
80.2
